Each item that follows carries a reported MIC.
- Tested on: Escherichia coli
- Measurement Protocol: Antimicrobial activity against Escherichia coli DH5alpha harbouring plasmid BK-VIM-19 expressing beta-lactamase VIM-19 by microdilution method in presence of 0.4 mM EDTA
- Format: functional

Example cases with answers are listed next.
| Compound | Target Or Test System | MIC |
| --- | --- | --- |
| C[C@@H](O)[C@H]1C(=O)N2C(C(=O)O)=C(S[C@@H]3CN[C@H](C(=O)Nc4cccc(C(=O)O)c4)C3)[C@H](C)[C@H]12 | Escherichia coli | < 0.12 µg/mL |
| C[C@@H](O)[C@H]1C(=O)N2C(C(=O)O)=C(S[C@@H]3CN[C@H](C(=O)N(C)C)C3)[C@H](C)[C@H]12 [MEROPENEM] | Escherichia coli | < 0.12 µg/mL |

Then this compound:
Read the entry C[C@@H](O)[C@H]1C(=O)N2C(C(=O)O)=C(SCCNC=N)C[C@H]12 [IMIPENEM ANHYDROUS] and write its reported MIC.
< 0.12 µg/mL
